# credit: ChEMBL document CHEMBL3243989

# Test system: Bordetella bronchiseptica
# assay_method_text: Antibacterial activity against Bordetella bronchiseptica MB3551 assessed as growth inhibition
# Format: functional
Measured MIC, listed per entry for reference.

# chemical_string, target_system, MIC / µg/mL
data = [
    ("CC(C)c1ccc(CCC(CCc2ccc(C(C)C)cc2)NCCCNCCCN)cc1.Cl", "Bordetella bronchiseptica", 4),
    ("Cl.NCCCNCCCNC(CCC1CCCCC1)CCC1CCCCC1", "Bordetella bronchiseptica", 2),
    ("CC(C)c1ccc(CCC(CCc2ccc(C(C)C)cc2)NCCNCCNCCN)cc1.Cl", "Bordetella bronchiseptica", 15),
    ("CC(C)(C)c1ccc(CCCC(CCCc2ccc(C(C)(C)C)cc2)NCCCNCCCNCCCN)cc1.Cl", "Bordetella bronchiseptica", 30),
    ("CN(CCCNCCCN)C(CCC1CCCCC1)CCC1CCCCC1.Cl", "Bordetella bronchiseptica", 4),
]

* * *

# Test system: Klebsiella aerogenes
# assay_method_text: Antibacterial activity against Klebsiella aerogenes MB1503 assessed as growth inhibition
# Format: functional
Returns: string. Value is YES if measured MIC is below 20 µg/mL, and NO if it is greater than or equal to it.

# compound, class_name
measured = [
    ("Cc1ccc(CCC(CCc2ccc(C)cc2)NCCCNCCCN)cc1.Cl", "YES"),
    ("CC1(C)C2CCC(C2)C1CCC(CCC1C2CCC(C2)C1(C)C)NCCCN1CCN(CCCN)CC1.Cl (centres undefined)", "YES"),
    ("CC(C)(C)c1ccc(CCCC(CCCc2ccc(C(C)(C)C)cc2)NCCCNCCCN)cc1.Cl", "NO"),
    ("CC1(C)C2CCC(C2)C1CCC(CCC1C2CCC(C2)C1(C)C)NCCNCCNCCCN.Cl (centres undefined)", "YES"),
    ("CC1(C)C2CCC(C2)C1CCC(CCC1C2CCC(C2)C1(C)C)NCCNCCNCCN.Cl (centres undefined)", "YES"),
    ("CC1(C)C2CCC(C2)C1CCC(CCC1C2CCC(C2)C1(C)C)NCCCN(CCCN)CCCN.Cl (centres undefined)", "NO"),
    ("Cl.NCCCNCCCNC(CCCC1CCCCC1)CCCC1CCCCC1", "YES"),
    ("CC1(C)C2CCC(C2)C1CCC(CCC1C2CCC(C2)C1(C)C)NCCCNCCCN.Cl (centres undefined)", "YES"),
    ("CC(C)(C)c1ccc(CCC(CCc2ccc(C(C)(C)C)cc2)NCCCNCCCN)cc1.Cl", "YES"),
    ("Cl.NCCCNCCCNC(CCCC1CC=CCC1)CCCC1CC=CCC1 (centres undefined)", "YES"),
    ("CN(C)[C@@H]1C(O)=C(C(N)=O)C(=O)[C@@]2(O)C(O)=C3C(=O)c4c(O)cccc4[C@@](C)(O)[C@H]3C[C@@H]12 [TETRACYCLINE]", "YES"),
    ("Cl.NCCNCCNCCNC(CCCC1CCCCC1)CCCC1CCCCC1", "YES"),
    ("CC1(C)C2CCC(C2)C1CCC(CCC1C2CCC(C2)C1(C)C)NCCNCCCNCCN.Cl (centres undefined)", "YES"),
    ("Cl.NCCNCCNC(CCC1CCCCC1)CCC1CCCCC1", "YES"),
    ("Cl.NCCCNCC(O)CNC(CCC1CCCCC1)CCC1CCCCC1 (centres undefined)", "YES"),
    ("CC(C)C1CCC(CCC(CCC2CCC(C(C)C)CC2)NCCCNCCCN)CC1.Cl (centres undefined)", "NO"),
    ("CC(C)(C)c1ccc(CCCC(CCCc2ccc(C(C)(C)C)cc2)NCCCNCCCNCCCN)cc1.Cl", "NO"),
    ("Cl.NCCCNCCCNC(CCC1CCCC1)CCC1CCCC1", "YES"),
    ("CC1(C)C2CCC(C2)C1CCC(CCC1C2CCC(C2)C1(C)C)NCCNCCN.Cl (centres undefined)", "YES"),
    ("CC(C)c1ccc(CCC(CCc2ccc(C(C)C)cc2)NCCNCCNCCN)cc1.Cl", "NO"),
    ("CC1(C)C2CCC(C2)C1CCC(CCC1C2CCC(C2)C1(C)C)NCCCNCCNCCCN.Cl (centres undefined)", "YES"),
]

* * *

# Test system: Bordetella bronchiseptica
# assay_method_text: Antibacterial activity against Bordetella bronchiseptica MB3551 assessed as growth inhibition
# Type: functional
Returns: string. Value is satisfied if measured MIC is below 6 µg/mL, and not satisfied if it is greater than or equal to it.

# molecule, class_name
measured = [
    ("CC(C)C1CCC(CCC(CCC2CCC(C(C)C)CC2)NCCCNCCCN)CC1.Cl (stereo not given)", "not satisfied"),
    ("CC1(C)C2CCC(C2)C1CCC(CCC1C2CCC(C2)C1(C)C)NCCCN1CCN(CCCN)CC1.Cl (stereo not given)", "not satisfied"),
    ("Cl.NCCCNCC(O)CNC(CCC1CCCCC1)CCC1CCCCC1 (stereo not given)", "satisfied"),
    ("CC(C)c1ccc(CCCC(CCCc2ccc(C(C)C)cc2)NCCNCCNCCN)cc1.Cl", "not satisfied"),
    ("Cl.NCCCNCCCNC(CCc1ccc2ccccc2c1)CCc1ccc2ccccc2c1", "satisfied"),
    ("Cl.NCCCNCCCNC(CCC1CCCC1)CCC1CCCC1", "satisfied"),
    ("Cl.NCCCNCCCNC(CCCC1CCCCC1)CCCC1CCCCC1", "satisfied"),
    ("CC1(C)C2CCC(C2)C1CCC(CCC1C2CCC(C2)C1(C)C)NCCCNCCCN.Cl (stereo not given)", "satisfied"),
    ("CC1(C)C2CCC(C2)C1CCC(CCC1C2CCC(C2)C1(C)C)NCCNCCNCCCN.Cl (stereo not given)", "not satisfied"),
    ("Cl.NCCNCCNCCNC(CCC1CCCCC1)CCC1CCCCC1", "satisfied"),
    ("Cl.NCCNCCNC(CCC1CCCCC1)CCC1CCCCC1", "satisfied"),
    ("Cl.NCCNCCNCCNC(CCCC1CCCCC1)CCCC1CCCCC1", "satisfied"),
    ("Cl.NCCCNCCCNC(CCCC1CC=CCC1)CCCC1CC=CCC1 (stereo not given)", "satisfied"),
    ("CN(C)[C@@H]1C(O)=C(C(N)=O)C(=O)[C@@]2(O)C(O)=C3C(=O)c4c(O)cccc4[C@@](C)(O)[C@H]3C[C@@H]12 [TETRACYCLINE]", "satisfied"),
    ("CC1(C)C2CCC(C2)C1CCC(CCC1C2CCC(C2)C1(C)C)NCCCN(CCCN)CCCN.Cl (stereo not given)", "satisfied"),
    ("Cc1ccc(C(C)(C)C)cc1CCCC(CCCc1cc(C(C)(C)C)ccc1C)NCCNCCNCCN.Cl", "not satisfied"),
    ("Cc1ccc(C(C)(C)C)cc1CCCC(CCCc1cc(C(C)(C)C)ccc1C)NCCCNCCCNCCCN.Cl", "not satisfied"),
    ("CC1(C)C2CCC(C2)C1CCC(CCC1C2CCC(C2)C1(C)C)NCCN(CCN)CCN.Cl (stereo not given)", "satisfied"),
    ("Cl.NCCCNCCCNC(CCCCC1CCCCC1)CCCCC1CCCCC1", "satisfied"),
]

* * *

# Test system: Staphylococcus aureus
# assay_method_text: Antibacterial activity against Staphylococcus aureus MB2865 assessed as growth inhibition
# Assay type: functional
Measured MIC, listed per entry for reference.

# molecule, unit_of_measurement, MIC
records = [
    ("CC(C)(C)c1ccc(CCC(CCc2ccc(C(C)(C)C)cc2)NCCCNCCCN)cc1.Cl", "µg/mL", 15),
    ("CC(C)(C)c1ccc(CCCC(CCCc2ccc(C(C)(C)C)cc2)NCCCNCCCN)cc1.Cl", "µg/mL", 10),
    ("Cc1ccc(C(C)(C)C)cc1CCCC(CCCc1cc(C(C)(C)C)ccc1C)NCCNCCNCCN.Cl", "µg/mL", 60),
    ("CC(C)C1CCC(CCC(CCC2CCC(C(C)C)CC2)NCCCNCCCN)CC1.Cl (centres undefined)", "µg/mL", 40),
    ("CC1(C)C2CCC(C2)C1CCC(CCC1C2CCC(C2)C1(C)C)NCCCNCCCNCCCN.Cl (centres undefined)", "µg/mL", 8),
    ("Cl.NCCCNCCCNC(CCCC1CC=CCC1)CCCC1CC=CCC1 (centres undefined)", "µg/mL", 10),
    ("CC(C)c1ccc(CCC(CCc2ccc(C(C)C)cc2)NCCCNCCCN)cc1.Cl", "µg/mL", 8),
    ("CN(CCCNCCCN)C(CCC1CCCCC1)CCC1CCCCC1.Cl", "µg/mL", 30),
    ("CC(C)c1ccc(CCC(CCc2ccc(C(C)C)cc2)NCCNCCNCCN)cc1.Cl", "µg/mL", 30),
    ("CC(C)c1ccc(CCCC(CCCc2ccc(C(C)C)cc2)NCCCNCCCN)cc1.Cl", "µg/mL", 20),
    ("Cl.NCCCNCCCNC(CCCCC1CCCCC1)CCCCC1CCCCC1", "µg/mL", 20),
    ("Cl.NCCCNCCCNC(CCc1ccc2ccccc2c1)CCc1ccc2ccccc2c1", "µg/mL", 8),
    ("CC1(C)C2CCC(C2)C1CCC(CCC1C2CCC(C2)C1(C)C)NCCCN(CCCN)CCCN.Cl (centres undefined)", "µg/mL", 4),
    ("CC1(C)C2CCC(C2)C1CCC(CCC1C2CCC(C2)C1(C)C)NCCCNCCNCCCN.Cl (centres undefined)", "µg/mL", 8),
    ("CN(C)[C@@H]1C(O)=C(C(N)=O)C(=O)[C@@]2(O)C(O)=C3C(=O)c4c(O)cccc4[C@@](C)(O)[C@H]3C[C@@H]12", "µg/mL", 2),
    ("Cc1ccc(CCC(CCc2ccc(C)cc2)NCCCNCCCN)cc1.Cl", "µg/mL", 50),
    ("Cc1ccc(C(C)(C)C)cc1CCCC(CCCc1cc(C(C)(C)C)ccc1C)NCCCNCCCNCCCN.Cl", "µg/mL", 8),
    ("CC1(C)C2CCC(C2)C1CCC(CCC1C2CCC(C2)C1(C)C)NCCNCCNCCN.Cl (centres undefined)", "µg/mL", 30),
    ("CC(C)(C)c1ccc(CCCC(CCCc2ccc(C(C)(C)C)cc2)NCCNCCNCCN)cc1.Cl", "µg/mL", 30),
]
